- Read-out: Monokine induced gamma interferon (MIG), CXCL9 (gene 4283)
- ASSAY: BSK_SAg_MIG: BioMAP Diversity Plus: SAg Assay for Monokine induced gamma interferon (MIG) Biomarker Activity (AID 2283092)
- MEASUREMENT_SETUP: primary human HUVEC with PBMC; actives raise or lower the signal
The source made the active and inactive calls. The calls were made as follows: active = hit-call score of the fitted dose curve at least 0.9, where 1 is the maximum; inactive = score below 0.9.
Please state which outcome applies, choosing from class 1 for active, class 0 for inactive

These recorded examples may help you get a feel for the data.
CCc1ccc(C(c2ccc(CC)cc2)C(Cl)Cl)cc1 :: class 1
OCC(F)(F)C(F)(F)C(F)(F)C(F)F :: class 0
O=C(O)C(F)(F)C(F)(F)C(F)(F)C(F)(F)C(F)(F)C(F)(F)C(F)(F)C(F)(F)Cl :: class 0
CCCCOCCOCCOC(=O)CCCCC(=O)OCCOCCOCCCC :: class 0
FC(F)(F)C(F)(F)C(F)(F)N(C(F)(F)C(F)(F)C(F)(F)F)C(F)(F)C(F)(F)C(F)(F)F :: class 0
Cc1ccc(S(=O)(=O)OCC(F)(F)C(F)(F)C(F)(F)C(F)(F)C(F)(F)C(F)F)cc1 :: class 0

Answer briefly: the call reported for C=C(C)C(=O)OCCC(F)(F)C(F)(F)C(F)(F)C(F)(F)C(F)(C(F)(F)F)C(F)(F)F in this assay.
class 0

Answer briefly: the call reported for O=C(O)C(F)(F)C(F)(F)C(F)(F)F in this assay.
class 0

Answer briefly: the call reported for O=C(O)C=C(C(F)(F)F)C(F)(F)F in this assay.
class 0

Answer briefly: the call reported for CCCCCCC(C)OC(=O)CCCCC(=O)OC(C)CCCCCC (centres undefined) in this assay.
class 0

Answer briefly: the call reported for O=C(O)C(F)(OC(F)(F)C(F)(OC(F)(F)C(F)(OC(F)(F)C(F)(F)C(F)(F)F)C(F)(F)F)C(F)(F)F)C(F)(F)F (centres undefined) in this assay.
class 0

Answer briefly: the call reported for OCC(F)(F)C(F)(F)C(F)(F)F in this assay.
class 0

Answer briefly: the call reported for CCCCCCCCC(F)(F)C(F)(F)C(F)(F)C(F)(F)C(F)(F)C(F)(F)F in this assay.
class 0

Answer briefly: the call reported for FC(F)(Br)C(F)(F)C(F)(F)C(F)(F)C(F)(F)C(F)(F)Br in this assay.
class 0

Answer briefly: the call reported for CS(C)(=O)=O in this assay.
class 0

Answer briefly: the call reported for FC(F)(F)C(F)(F)C(F)(F)C(F)(F)C(F)(F)C(F)(F)CC1CO1 (centres undefined) in this assay.
class 0

Answer briefly: the call reported for CC(CCl)OP(=O)(OC(C)CCl)OC(C)CCl (centres undefined) in this assay.
class 0

Answer briefly: the call reported for FC(F)(F)C(F)(F)CNCC(F)(F)C(F)(F)F in this assay.
class 0

Answer briefly: the call reported for Oc1ccc(Nc2ccccc2)cc1 in this assay.
class 0

###

- Read-out: E-selectin (Homo sapiens)
- ASSAY: BSK_IMphg_ESelectin: BioMAP Diversity Plus: IMphg Assay for Eselectin Biomarker Activity (AID 2284291)
- MEASUREMENT_SETUP: primary human endothelial cells with macrophages
Activity calls are given as the source filed them. Rule for the calls: active = hit-call score of the fitted dose curve at least 0.9, where 1 is the maximum; inactive = score below 0.9.
OBSERVATION_TYPE: outcome

Some solved cases for reference:
OCC(F)(F)C(F)(F)C(F)(F)F :: inactive
O=C(CC(=O)C(F)(F)C(F)(F)F)C(F)(F)F :: inactive
FC(F)(F)C(F)(F)C(F)(F)C(F)(F)C(F)(F)C(F)(F)C(F)(F)Br :: inactive
O=C(O)C(F)(OC(F)(F)C(F)(OC(F)(F)C(F)(F)C(F)(F)F)C(F)(F)F)C(F)(F)F (stereo unspecified) :: inactive
O=C(O)C(F)(F)C(F)(F)C(F)(F)F :: inactive
O=S(=O)(OCCOC(F)(F)F)C(F)(F)F :: inactive
FC(F)(F)C(F)(F)C(F)(F)CI :: inactive
C=C(C)C(=O)OCC(F)(F)C(F)(F)C(F)(F)F :: inactive

Record outcome per entry; entries follow.
1. O=C(O)C(F)(F)C(F)(F)C(F)(F)C(F)(F)C(F)(F)C(F)(F)C(F)(F)C(F)(F)C(F)(F)C(F)(F)C(F)(F)C(F)(F)C(F)(F)F
2. C=C(C)C(=O)OCC(F)(F)C(F)(F)C(F)(F)C(F)(F)C(F)(F)C(F)(F)C(F)(F)F
3. FC1CC(F)(F)C(F)(F)C1(F)F (stereo unspecified)

1: inactive; 2: inactive; 3: inactive

###

- EXPERIMENTAL_SYSTEM: human Matrix Metalloproteinase-9 (MMP9), MMP9 (gene 4318) (UniProt P14780)
- Sequence (P14780 whole entry, looked up): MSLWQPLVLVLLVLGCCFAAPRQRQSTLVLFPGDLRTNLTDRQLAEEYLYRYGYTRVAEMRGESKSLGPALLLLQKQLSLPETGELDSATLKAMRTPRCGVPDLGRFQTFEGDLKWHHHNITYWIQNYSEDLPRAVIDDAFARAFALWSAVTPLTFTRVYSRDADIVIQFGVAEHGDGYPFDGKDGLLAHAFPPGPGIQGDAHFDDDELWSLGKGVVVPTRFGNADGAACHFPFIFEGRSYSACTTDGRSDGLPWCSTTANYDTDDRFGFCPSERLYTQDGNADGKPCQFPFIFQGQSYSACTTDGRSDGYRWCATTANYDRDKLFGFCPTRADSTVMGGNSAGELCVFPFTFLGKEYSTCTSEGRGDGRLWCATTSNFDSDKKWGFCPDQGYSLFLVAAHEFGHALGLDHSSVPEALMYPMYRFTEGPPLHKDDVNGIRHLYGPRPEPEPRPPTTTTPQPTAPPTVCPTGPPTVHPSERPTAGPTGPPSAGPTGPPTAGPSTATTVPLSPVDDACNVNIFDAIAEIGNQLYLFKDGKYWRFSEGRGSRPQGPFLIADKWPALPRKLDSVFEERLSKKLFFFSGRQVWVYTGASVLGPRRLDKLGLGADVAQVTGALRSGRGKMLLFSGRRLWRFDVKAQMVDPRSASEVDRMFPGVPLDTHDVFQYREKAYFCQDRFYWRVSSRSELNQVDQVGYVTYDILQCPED
- ASSAY: NVS_ENZ_hMMP9: NovaScreen (NVS) Enzymatic Assay for human Matrix Metalloproteinase-9 (MMP9) (AID 2283190);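 also: cell-free recombinant MMP9 protease activity read by fluorescent substrate signal; active means inhibition seen as loss of fluorescence signal versus DMSO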
Inconclusive results are not listed. Calls of active or inactive are those of the source. The calls were made as follows: active = hit-call score of the fitted dose curve at least 0.9, where 1 is the maximum; inconclusive = response in the unintended direction; inactive = score below 0.9.
Please state which outcome applies, choosing from active, inactive

These recorded examples may help you get a feel for the data.
CCCCCCCCCCCCCCCC[N+](C)(C)Cc1ccccc1 :: inactive
Oc1ccc(Nc2ccccc2)cc1 :: active
CCc1ccc(C(c2ccc(CC)cc2)C(Cl)Cl)cc1 :: inactive

Next:
Answer briefly: the call reported for CCCCNc1ccccc1 in this assay.
active

###

- ASSAY: CCTE_Shafer_MEA_dev_mutual_information_norm: CCTE's Neural Network Formation Assay for Mutual Information Normalization, Shafer Lab (AID 2284091)
- Method: CCTE_Shafer_MEA_dev assay is conducted using Axion Biosystems 48 well microelectrode array (MEA) plates and Maestro recording system. Each well of the MEA plate contains a grid of 16 microelectrodes embedded in the culture surface. Electrically active cells, such as neurons, can be cultured over the electrodes, and electrical activity in these cells can be recorded extracellularly. […]
The source made the active and inactive calls. Rule for the calls: active = hit-call score of the fitted dose curve at least 0.9, where 1 is the maximum; inactive = score below 0.9.
OBSERVATION_TYPE: outcome

OCCCC(F)(F)C(F)(F)C(F)(F)F :: inactive
O=P(O)(O)OCCC(F)(F)C(F)(F)C(F)(F)C(F)(F)C(F)(F)C(F)(F)F :: inactive
O=S(=O)(OCCOC(F)(F)F)C(F)(F)F :: inactive

###

- ASSAY: BSK_KF3CT_SRB: Viability Assessment in the BioMAP Diversity Plus: KF3CT Assay (AID 2283069);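 also: total protein by sulforhodamine B staining as a cytotoxicity measure; read 24 h after compound addition; fitted for both signal gain and loss against DMSO baseline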
- MEASUREMENT_SETUP: primary human keratinocytes with fibroblasts
Active and inactive are the calls of the source. Rule for the calls: active = hit-call score of the fitted dose curve at least 0.9, where 1 is the maximum; inactive = score below 0.9.
Please state which outcome applies, choosing from 1.0 for active, 0.0 for inactive

Answer briefly: the call reported for FC(F)(F)C(F)(F)C(F)(F)CI in this assay.
0.0

Answer briefly: the call reported for O=C(O)C(F)(F)C(F)(F)F in this assay.
0.0

Answer briefly: the call reported for CCc1c(Br)c(Br)c(Br)c(Br)c1Br in this assay.
0.0

Answer briefly: the call reported for CCCCOCCOCCOC(=O)CCCCC(=O)OCCOCCOCCCC in this assay.
0.0

Answer briefly: the call reported for C=C(C)C(=O)OCCC(F)(F)C(F)(F)C(F)(F)C(F)(F)C(F)(C(F)(F)F)C(F)(F)F in this assay.
0.0

Answer briefly: the call reported for CO[Si](OC)(c1ccccc1)c1ccccc1 in this assay.
1.0

###

- Read-out: Matrix Metallopeptidase 1 (MMP1), MMP1 (gene 4312)
- ASSAY: BSK_MyoF_MMP1: BioMAP Diversity Plus: MyoF Assay for Matrix Metallopeptidase 1 (MMP1) Biomarker Activity (AID 2284268)
- MEASUREMENT_SETUP: primary human lung fibroblasts
Calls of active or inactive are those of the source. Rule for the calls: active = hit-call score of the fitted dose curve at least 0.9, where 1 is the maximum; inactive = score below 0.9.
OBSERVATION_TYPE: AC50

Some solved cases for reference:
CCCCCCC(C)OC(=O)CCCCC(=O)OC(C)CCCCCC (stereo unspecified) :: inactive
O=C(O)C(F)(F)C(F)(F)C(F)(F)C(F)(F)C(F)(F)C(F)(F)C(F)(F)C(F)(F)C(F)(F)C(F)(F)C(F)(F)C(F)(F)C(F)(F)F :: inactive
O=C(O)C(F)(F)C(F)(F)C(F)F :: inactive
FC(F)(F)C(F)(F)C(F)(F)C(F)(F)C(F)(F)CCI :: inactive
O[Si](c1ccccc1)(c1ccccc1)c1ccccc1 :: 13.9 µM (active)
O=C(Cl)C(F)(F)C(F)(F)C(F)(F)C(F)(F)C(F)(F)C(F)(F)C(F)(F)C(F)(F)F :: inactive
C=CC(=O)OCC(F)(F)C(F)(F)C(F)(F)C(F)(F)C(F)(F)C(F)(F)C(F)(F)F :: inactive
CS(C)(=O)=O :: inactive
OCC(F)(F)C(F)(F)C(F)(F)C(F)F :: inactive
C#C[C@]1(O)CC[C@H]2[C@@H]3CCc4cc(OC)ccc4[C@H]3CC[C@@]21C :: 20 µM (active)

Turning to the following compound.
Query: AC50; subject: CCN(CC)c1ccc2c(C)cc(=O)oc2c1
inactive

###

- Read-out: Plasminogen activator inhibitor-1 (PAI1), SERPINE1 (gene 5054)
- ASSAY: BSK_hDFCGF_PAI1: BioMAP Diversity Plus: hDFCGF Assay for Plasminogen activator inhibitor-1 (PAI1) Biomarker Activity (AID 2283066)
- MEASUREMENT_SETUP: primary human foreskin fibroblasts; actives raise or lower the signal
The source made the active and inactive calls. The calls were made as follows: active = hit-call score of the fitted dose curve at least 0.9, where 1 is the maximum; inactive = score below 0.9.
Please state which outcome applies, choosing from active, inactive

These recorded examples may help you get a feel for the data.
OCC(F)(F)C(F)(F)C(F)(F)C(F)(F)C(F)(F)C(F)F :: inactive
O=S(=O)(O)C(F)(F)C(F)(F)C(F)(F)C(F)(F)C(F)(F)C(F)(F)C(F)(F)F :: inactive

Answer briefly: the call reported for Oc1ccc(Nc2ccccc2)cc1 in this assay.
active

Where these numbers come from: PubChem BioAssay (EPA / NIEHS)
